Ref: patent US8222285B2

molecular target: human glucokinase (GK) (Homo sapiens); construct: Full-length human hepatic GK (untagged) was expressed in BL21 STAR (DE3)pLysS cells; made in house; host or cells: E. coli BL21 STAR (DE3)pLysS; test: Glucokinase tandem enzymatic assay; assay type: biochemical; details: 12 mM glucose; full-length human GK 15 nM
Sequence (P35557 1-466 isoform P35557-2): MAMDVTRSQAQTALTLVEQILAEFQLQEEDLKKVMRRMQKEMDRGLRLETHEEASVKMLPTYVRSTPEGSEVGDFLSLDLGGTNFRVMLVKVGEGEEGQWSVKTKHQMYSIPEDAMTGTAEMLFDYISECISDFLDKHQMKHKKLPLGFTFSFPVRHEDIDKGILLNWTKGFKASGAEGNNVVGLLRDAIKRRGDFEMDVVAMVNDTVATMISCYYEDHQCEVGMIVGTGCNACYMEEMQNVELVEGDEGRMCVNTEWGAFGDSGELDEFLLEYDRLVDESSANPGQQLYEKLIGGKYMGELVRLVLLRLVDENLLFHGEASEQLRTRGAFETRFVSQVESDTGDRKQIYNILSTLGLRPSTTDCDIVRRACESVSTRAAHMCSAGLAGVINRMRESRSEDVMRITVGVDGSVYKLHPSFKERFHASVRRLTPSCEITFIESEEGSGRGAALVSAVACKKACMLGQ
readout: EC50 (nM)

The recorded EC50 for COC[C@H](C)Oc1cc(Oc2ccc(S(C)(=O)=O)cc2)cc(C(=O)Nc2ncc(Oc3cccc(C(=O)O)c3)s2)c1 is 47

[a] COC[C@H](C)Oc1cc(Oc2ccc(S(C)(=O)=O)cc2)cc(C(=O)Nc2ncc(Oc3cccc(C(N)=O)c3)s2)c1
[b] CC(C)Oc1cc(OC(C)C)cc(C(=O)Nc2ncc(Oc3ccc(F)nc3)s2)c1
[c] CC(C)Oc1cc(Oc2ccc(S(C)(=O)=O)nc2)cc(C(=O)Nc2ncc(Oc3cccc(C(=O)O)c3)s2)c1
[d] COC[C@H](C)Oc1cc(Oc2ccc(S(C)(=O)=O)cc2)cc(C(=O)Nc2ncc(Oc3cccc(C(=O)N4CCC4)c3)s2)c1
// smallest EC50 at index 0, largest at the end Please list each label once, in the requested order. d, a, c, b

----------
molecular target: human glucokinase (GK) (Homo sapiens); construct: Full-length human hepatic GK (untagged) was expressed in BL21 STAR (DE3)pLysS cells; made in house; host or cells: E. coli BL21 STAR (DE3)pLysS; experiment: Glucokinase tandem enzymatic assay; format: biochemical; details: 12 mM glucose; full-length human GK 15 nM
readout: EC50 (nM)

Entry under test: CS(=O)(=O)c1ccc(Oc2cc(Oc3ccnc(Cl)c3)cc(C(=O)Nc3ncc(Oc4cccc(C(=O)O)c4)s3)c2)cc1 . Its EC50 was 170

[1] CC(C)Oc1cc(OC(C)C)cc(C(=O)Nc2ncc(Oc3cccc(C(=O)O)c3)s2)c1
[2] COC[C@H](C)Oc1cc(Oc2ccc(S(C)(=O)=O)cc2)cc(C(=O)Nc2ncc(Oc3cccc(C(=O)N4CC(O)C4)c3)s2)c1
Between 1 and 2 , whose recorded EC50 is greater? Write down the label attached to your selection. 1
